# procedure.text: Tmax in Sprague-Dawley rat at 3 mg/kg, po
# Assay type: ADME, organism-based
# Design: dose 3 mg/kg, route oral
# conditions: in vivo
endpoint.name: Tmax (h)
Your answer is read as h, so omit the unit and give the number.

Input line: Which measured Tmax value corresponds to `O=C(Nc1ccc(C(F)(F)F)cc1)N1[C@@H]2CC[C@H]1C[C@@H](S(=O)(=O)c1ccccn1)C2` ?
Output line: 2

====

# procedure.text: Metabolic stability in mouse liver microsomes assessed as compound remaining at 1 uM after 30 mins
# Assay type: ADME, Microsome
# conditions: read-out: Stability
endpoint.name: remaining at 0.5 h, 1 µM (%)
Your answer is read as %, so omit the unit and give the number.

Input line: Which measured remaining at 0.5 h, 1 µM value corresponds to `O=C(Nc1ccc(C(F)(F)F)cc1)N1[C@@H]2CC[C@H]1C[C@@H](S(=O)(=O)c1ccccn1)C2` ?
Output line: 67
